# system tested: 14C-HIgG (human)
# assay method text: second round of secondary screening, batch, competitive (MEM), 14C counting
No end group written: not given here.
quantity measured: Unbound (%)

Worked cases, Unbound given:
- binder: "HLKWYAA-{Toyopearl AF‑Amino‑650 resin}"
  Unbound [%]: 76.5
- binder: "HWGPTKA-{Toyopearl AF‑Amino‑650 resin}"
  Unbound [%]: 80.1
- binder: "HPWYVTA-{Toyopearl AF‑Amino‑650 resin}"
  Unbound [%]: 73
- binder: "KLQWVHA-{Toyopearl AF‑Amino‑650 resin}"
  Unbound [%]: 87.8

P = HIWA-{Toyopearl AF‑Amino‑650 resin}
Q = HFRRHLA-{Toyopearl AF‑Amino‑650 resin}
Query: Among P and Q , which shows a numerically higher Unbound result? Choose, then provide that item's label.
Response: P
